B1: TPR t1 (parent)
chain: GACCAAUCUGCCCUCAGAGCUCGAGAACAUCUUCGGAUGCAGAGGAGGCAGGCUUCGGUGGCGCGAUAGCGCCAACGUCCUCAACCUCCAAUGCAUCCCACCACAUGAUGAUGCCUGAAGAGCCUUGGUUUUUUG

variants of: B1; experiment: polymerase ribozyme fitness, log enrichment relative to wild type (log ratio); higher = more active; in vitro selection for triplet polymerase activity
attribute measured: polymerase ribozyme fitness (log ratio)

- mutant name: "A95C G113C C124G"
  value: -1.76
- mutant name: "A68G C115U"
  value: -3.75
- mutant name: "C102A G127A"
  value: -3.45
- mutant name: "A37U G77U"
  value: -0.679
- mutant name: "C11U A43C G69C G77U U112G U134G"
  value: -5.15
- mutant name: "G39U C101G"
  value: -3.29
- mutant name: "C11G U14A A46U"
  value: -1.11
- mutant name: "C88G U130C"
  value: -0.362
- mutant name: "A43C G63A"
  value: -4.15
- mutant name: "G10C A37U G63U U96A C124U U129G"
  value: -4.44
- mutant name: "A18U A43U U59G G113A U125C"
  value: -2.05
- mutant name: "C56U C80U"
  value: -1.17
- mutant name: "C86G C101A"
  value: -1.32
- mutant name: "C12G G52A C88U G120U"
  value: 1.84
- mutant name: "G58C C86A C89G"
  value: -4.05
- mutant name: "G10A C13U U14A G61U C104G"
  value: -6.29
- mutant name: "C85U U96C"
  value: -0.852
- mutant name: "A18U A43C C49U"
  value: -3.92
- mutant name: "C70A G117U"
  value: -4.09
- mutant name: "C20A G52C U125A"
  value: -3.04
- mutant name: "G58C G63C"
  value: -2.61
- mutant name: "U9A C13U U92A C101A"
  value: -4.36
